Hi there, I'd appreciate the recorded Population Hoechst High Intensity Objects (%) for every entry that follows.
System: Fibroblast
TEST DETAILS: Multiplex assay against human fibroblast
Format: toxicity, cell-based
MEASUREMENT CONTEXT: 24 h, 1 µM, compound concentration 1 uM, replicate 2
Express the result in % but write the number alone.

Reported Population Hoechst High Intensity Objects (%) ( CN1CCN(c2nc3cc(C(F)(F)F)ccc3n3cccc23)CC1.O=C(O)/C=C\C(=O)O.O=C(O)/C=C\C(=O)O ) = 6

Reported Population Hoechst High Intensity Objects (%) ( N#Cc1c(N)nc(SCc2csc(-c3ccc(Cl)cc3)n2)c(C#N)c1-c1ccc(OCCO)cc1 ) = 4

Reported Population Hoechst High Intensity Objects (%) ( CC[C@H]1OC(=O)[C@H](C)[C@@H](O[C@H]2C[C@@](C)(OC)[C@@H](O)[C@H](C)O2)[C@H](C)[C@@H](O[C@@H]2O[C@H](C)C[C@H](N(C)C)[C@H]2O)[C@@]2(C)CC(C)=C(O2)[C@H](C)[C@@H](O)[C@]1(C)O ) = 3

Reported Population Hoechst High Intensity Objects (%) ( Cc1nc2ccc(Oc3ccc(F)cc3)cc2c(=O)n1C[C@H]1CCCN(C(C)C)C1.Cl ) = 7

Reported Population Hoechst High Intensity Objects (%) ( COc1cc(C(=O)N(CCCc2ccccc2)Cc2ccc(CC(=O)O)cc2)cc(OC)c1C ) = 4

Reported Population Hoechst High Intensity Objects (%) ( O=C(O)c1cc2ccccc2c(Cc2c(O)c(C(=O)O)cc3ccccc23)c1O ) = 6

Reported Population Hoechst High Intensity Objects (%) ( CN1CCN2c3ncccc3Cc3ccccc3C2C1 (stereo unspecified) ) = 0

Reported Population Hoechst High Intensity Objects (%) ( CC1(COc2ccc3c(c2)ncn3-c2ccc3cccc(N4CCC(N)CC4)c3n2)COC1 ) = 1

Reported Population Hoechst High Intensity Objects (%) ( C[C@H]1[C@H]2CC[C@H]3[C@@H]4CC=C5C[C@@H](N(C)C)CC[C@]5(C)[C@H]4CC[C@]23CN1C ) = 4

Reported Population Hoechst High Intensity Objects (%) ( C[C@H](NC(=O)c1c(C(F)F)nn(C)c1Oc1cccc(C(F)(F)F)c1)c1ccc(C(=O)O)cc1 ) = 7

Reported Population Hoechst High Intensity Objects (%) ( CSc1ccccc1N1CCN(CCCCCC(=O)NC2CCCc3ccccc32)CC1.Cl (stereo unspecified) ) = 3

Reported Population Hoechst High Intensity Objects (%) ( CN(C)c1ccnc2sc3c(=O)n(N4CCCCCC4)cnc3c12 ) = 2

Reported Population Hoechst High Intensity Objects (%) ( O=S(=O)(c1ccccc1)c1cnc2c(N3CCNCC3)cccc2c1 [INTEPIRDINE] ) = 0

Reported Population Hoechst High Intensity Objects (%) ( O=C(O)Cc1ccccc1Nc1c(Cl)cccc1Cl ) = 3

Reported Population Hoechst High Intensity Objects (%) ( CCCC(CCC)C(=O)O ) = 7

Reported Population Hoechst High Intensity Objects (%) ( CSCC[C@H](NC=O)C(=O)N[C@@H](CC(C)C)C(=O)N[C@@H](Cc1ccccc1)C(=O)O ) = 7

Reported Population Hoechst High Intensity Objects (%) ( COc1c(C)cc(NC(=O)c2nn(Cc3ccc(F)cc3)c3c2CN(C(=O)c2ccc[nH]2)C[C@]3(C)C(N)=O)cc1C ) = 6

Reported Population Hoechst High Intensity Objects (%) ( CCOc1c2c(c(OCC)c3ncccc13)CN(c1ccc(CS(=O)(=O)NC(=O)Cc3ccccc3OC)cc1C)C2=O ) = 2

Reported Population Hoechst High Intensity Objects (%) ( N[C@@]1(C(=O)O)CO[C@H]2[C@H](C(=O)O)[C@H]21 ) = 10

Reported Population Hoechst High Intensity Objects (%) ( Cc1ccc(/C(=C\CN2CCCC2)c2ccccn2)cc1 ) = 9

Reported Population Hoechst High Intensity Objects (%) ( c1cc(OCCCN2CCCCC2)ccc1CN1CCCCC1 ) = 5
